Target: E. coli DNA gyrase (Escherichia coli, UniProt P0AES4+P0AES6)
Construct: made in house; host or cells: strains overexpressing each subunit individually
Sequence (P0AES4 whole entry, one chain of several): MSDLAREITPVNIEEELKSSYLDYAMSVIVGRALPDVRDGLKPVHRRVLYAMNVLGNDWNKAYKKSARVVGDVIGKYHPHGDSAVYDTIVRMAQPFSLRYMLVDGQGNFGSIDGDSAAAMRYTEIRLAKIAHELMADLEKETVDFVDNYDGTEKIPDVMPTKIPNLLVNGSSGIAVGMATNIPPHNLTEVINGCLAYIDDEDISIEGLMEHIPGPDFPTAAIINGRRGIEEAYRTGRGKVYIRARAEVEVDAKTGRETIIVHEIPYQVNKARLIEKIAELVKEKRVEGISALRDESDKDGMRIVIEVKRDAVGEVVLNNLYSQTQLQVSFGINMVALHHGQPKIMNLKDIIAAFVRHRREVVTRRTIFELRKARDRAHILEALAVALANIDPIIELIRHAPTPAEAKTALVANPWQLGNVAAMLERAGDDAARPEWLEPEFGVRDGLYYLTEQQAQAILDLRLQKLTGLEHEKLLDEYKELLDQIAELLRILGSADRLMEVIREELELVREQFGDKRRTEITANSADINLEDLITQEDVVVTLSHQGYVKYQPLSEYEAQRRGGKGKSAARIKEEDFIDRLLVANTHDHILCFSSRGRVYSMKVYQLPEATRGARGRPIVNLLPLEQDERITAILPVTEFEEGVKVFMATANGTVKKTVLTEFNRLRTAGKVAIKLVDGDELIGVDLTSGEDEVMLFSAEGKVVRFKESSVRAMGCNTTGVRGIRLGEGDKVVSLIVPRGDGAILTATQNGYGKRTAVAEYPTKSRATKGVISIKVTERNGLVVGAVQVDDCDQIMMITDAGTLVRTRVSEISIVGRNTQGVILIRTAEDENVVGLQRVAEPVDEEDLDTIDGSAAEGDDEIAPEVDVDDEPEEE
Assay: In Vitro DNA Gyrase Assay (supercoiling of relaxed pBR322, EtBr-stained agarose gel)
Type: biochemical
Conditions: Gyrase IC50 (μM), E. coli DNA gyrase holoenzyme A2B2; substrate relaxed pBR322; relaxed vs. supercoiled DNA on 0.8% agarose gel
IC50 for assorted compounds

compound | IC50 (µM)
C[C@@H]1CN2c3ccc([N+](=O)[O-])cc3CC3(C(=O)NC(=O)NC3=O)[C@@H]2[C@@H](C)O1 (racemic) [Example 1] | 19
C[C@@H]1CN2c3ccc(C#N)cc3CC3(C(=O)NC(=O)NC3=O)[C@H]2[C@H](C)O1 [Example 6] | 13.8
C[C@@H]1CN2c3ccccc3CC3(C(=O)NC(=O)NC3=O)[C@H]2[C@H](C)O1 (racemic) [Example 2] | 45.6
C[C@@H]1CN2c3ccc(F)cc3CC3(C(=O)NC(=O)NC3=O)[C@H]2[C@H](C)O1 (racemic) [Example 4] | 70.2
CC(=O)c1ccc2c(c1)CC1(C(=O)NC(=O)NC1=O)[C@H]1[C@H](C)O[C@H](C)CN21 (racemic) [Example 18] | 8.4
COC(=O)c1ccc2c(c1)CC1(C(=O)NC(=O)NC1=O)[C@H]1[C@H](C)O[C@H](C)CN21 (relative stereo) [Example 43] | 24
